Just for reference, ChEMBL document CHEMBL1128575 is where these values come from.

# ASSAY COMMENT: Area under the concentration vs time curve in rat at 10 mg/kg oral dose
# Format: ADME, organism-based
# Set-up: dose 10 mg/kg, route oral
# CONDITION SUMMARY: in vivo
METRIC NAME: AUC (ng·h/mL)
Answers are plain numbers, in ng·h/mL.

GET /value?item= CC(C)C(NC(=O)Cn1c(-c2ccc(F)cc2)ncc(N)c1=O)C(=O)C(F)(F)F (stereo unspecified) &field=AUC returns 5170

----------
# ASSAY COMMENT: Partition coefficient (logP)
# Format: physicochemical
# CONDITION SUMMARY: octanol/water
METRIC NAME: logP
Give bare numbers.

Below, 5 compounds whose answers are already recorded.
1) CC(C)C(NC(=O)Cn1c(-c2cccs2)ncc(NC(=O)OCc2ccccc2)c1=O)C(=O)C(F)(F)F (stereo not drawn)	2
2) CC(C)C(NC(=O)Cn1c(C2CCCCC2)ncc(NC(=O)OCc2ccccc2)c1=O)C(=O)C(F)(F)F (stereo not drawn)	2.9
3) CC(C)C(NC(=O)Cn1c(-c2ccc(C(F)(F)F)cc2)ncc(NC(=O)OCc2ccccc2)c1=O)C(=O)C(F)(F)F (stereo not drawn)	2.3
4) CC(C)C(NC(=O)Cn1c(-c2cccnc2)ncc(NC(=O)OCc2ccccc2)c1=O)C(=O)C(F)(F)F (stereo not drawn)	1.3
5) CC(C)C(NC(=O)Cn1c(-c2ccc(F)cc2)ncc(NC(=O)OCc2ccccc2)c1=O)C(=O)C(F)(F)F (stereo not drawn)	2.2

Items follow; give logP for each.
1. CC(C)C(NC(=O)Cn1c(-c2ccccc2)ncc(NC(=O)OCc2ccccc2)c1=O)C(=O)C(F)(F)F (stereo not drawn)
2. CC(C)c1ncc(NC(=O)OCc2ccccc2)c(=O)n1CC(=O)NC(C(=O)C(F)(F)F)C(C)C (stereo not drawn)

[2.1, 2.6]

----------
# ASSAY COMMENT: Area under the concentration vs time curve in hamster at 10 mg/kg oral dose
# Type: ADME, organism-based
# Design: dose 10 mg/kg, route oral
# CONDITION SUMMARY: cricetinae, in vivo
METRIC NAME: AUC (ng·h/mL)
Give bare numbers, in ng·h/mL.

GET /value?item= CC(C)C(NC(=O)Cn1c(-c2ccc(F)cc2)ncc(N)c1=O)C(=O)C(F)(F)F (stereo unspecified) &field=AUC returns 1190

----------
# ASSAY COMMENT: Maximum concentration in plasma recorded 0-6 hr post dose in dog at 10 mg/kg oral dose
# Assay type: ADME, organism-based, Canis lupus familiaris
# Set-up: dose 10 mg/kg, route oral
METRIC NAME: Cmax (ng/mL)
Numbers only, in ng/mL.

GET /value?item= CC(C)C(NC(=O)Cn1c(-c2ccc(F)cc2)ncc(N)c1=O)C(=O)C(F)(F)F (stereo unspecified) &field=Cmax returns 3230

----------
What Ratio was measured for each of the following?
# ASSAY COMMENT: Selectivity ratio for bovine pancreatic chymotrypsin and HLE
One number for each entry.

1. CC(C)C(NC(=O)Cn1c(-c2ccc(C(F)(F)F)cc2)ncc(NC(=O)OCc2ccccc2)c1=O)C(=O)C(F)(F)F (stereo not drawn)	164
2. CC(C)C(NC(=O)Cn1c(-c2cccs2)ncc(NC(=O)OCc2ccccc2)c1=O)C(=O)C(F)(F)F (stereo not drawn)	162
3. CC(C)c1ncc(NC(=O)OCc2ccccc2)c(=O)n1CC(=O)NC(C(=O)C(F)(F)F)C(C)C (stereo not drawn)	100

Items follow; give Ratio for each.
1. CC(C)C(NC(=O)Cn1c(-c2cccnc2)ncc(NC(=O)OCc2ccccc2)c1=O)C(=O)C(F)(F)F (stereo not drawn)
2. COc1ccc(-c2ncc(NC(=O)OCc3ccccc3)c(=O)n2CC(=O)NC(C(=O)C(F)(F)F)C(C)C)cc1 (stereo not drawn)
3. CC(C)C(NC(=O)Cn1c(-c2cc(F)cc(F)c2)ncc(NC(=O)OCc2ccccc2)c1=O)C(=O)C(F)(F)F (stereo not drawn)
4. CC(C)C(NC(=O)Cn1c(-c2ccc(Cl)cc2)ncc(NC(=O)OCc2ccccc2)c1=O)C(=O)C(F)(F)F (stereo not drawn)
5. CC(C)C(NC(=O)Cn1c(-c2ccc([N+](=O)[O-])cc2)ncc(NC(=O)OCc2ccccc2)c1=O)C(=O)C(F)(F)F (stereo not drawn)

[245, 272, 230, 322, 406]

----------
# ASSAY COMMENT: Maximum concentration in plasma recorded in the period 0-6 hr post dose in hamster at 10 mg/kg oral dose
# Assay type: ADME, organism-based
# Design: dose 10 mg/kg, route oral
# CONDITION SUMMARY: cricetinae
METRIC NAME: Cmax (ng/mL)
Answers are plain numbers, in ng/mL.

GET /value?item= CC(C)C(NC(=O)Cn1c(-c2ccc(F)cc2)ncc(N)c1=O)C(=O)C(F)(F)F (stereo unspecified) &field=Cmax returns 750

----------
# ASSAY COMMENT: Area under the concentration vs time curve in dog at 10 mg/kg oral dose
# Assay type: ADME, organism-based, Canis lupus familiaris
# Design: dose 10 mg/kg, route oral
# CONDITION SUMMARY: in vivo
METRIC NAME: AUC
State the result as a value with its unit after it.

GET /value?item= CC(C)C(NC(=O)Cn1c(-c2ccc(F)cc2)ncc(N)c1=O)C(=O)C(F)(F)F (stereo unspecified) &field=AUC returns 5950 ng·h/mL

----------
# SYSTEM NAME: Neutrophil elastase (Homo sapiens)
# Sequence (P08246 whole entry): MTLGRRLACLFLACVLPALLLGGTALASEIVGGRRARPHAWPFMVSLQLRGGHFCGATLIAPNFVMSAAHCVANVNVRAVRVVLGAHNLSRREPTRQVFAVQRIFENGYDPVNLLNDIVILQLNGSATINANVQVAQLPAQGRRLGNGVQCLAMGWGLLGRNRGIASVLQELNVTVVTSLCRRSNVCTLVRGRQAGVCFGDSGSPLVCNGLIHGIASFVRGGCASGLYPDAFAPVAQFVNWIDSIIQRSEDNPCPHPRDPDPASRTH
# ASSAY COMMENT: In vitro inhibition of human leukocyte elastase mediated hydrolysis of the synthetic substrate MeO-Suc-Ala-Ala-Pro-Val-pNA
Flag rule - Ki less than 30 nM flags T; the remaining entries get F.

1) CC(C)C(NC(=O)Cn1c(-c2cccnc2)ncc(NC(=O)OCc2ccccc2)c1=O)C(=O)C(F)(F)F (configuration not stated)	F

Check if Ki falls below 30 nM for CC(C)C(NC(=O)Cn1c(-c2ccccc2)ncc(NC(=O)OCC(F)(F)F)c1=O)C(=O)C(F)(F)F (configuration not stated) .
F

Check if Ki falls below 30 nM for COC(=O)Nc1cnc(-c2ccc(F)cc2)n(CC(=O)NC(B2OC(C)(C)C(C)(C)O2)C(C)C)c1=O (configuration not stated) .
T

Check if Ki falls below 30 nM for CC(C)C(NC(=O)Cn1c(-c2ccc(Cl)cc2)ncc(NC(=O)OCc2ccccc2)c1=O)C(=O)C(F)(F)F (configuration not stated) .
T

Check if Ki falls below 30 nM for CSC(=O)Nc1cnc(-c2ccc(F)cc2)n(CC(=O)NC(C(=O)C(F)(F)F)C(C)C)c1=O (configuration not stated) .
T

Check if Ki falls below 30 nM for CC(C)C(NC(=O)Cn1c(-c2ccc(N)cc2)ncc(NC(=O)OCc2ccccc2)c1=O)C(=O)C(F)(F)F (configuration not stated) .
T

Check if Ki falls below 30 nM for CC(C)C(NC(=O)Cn1c(-c2cccs2)ncc(NC=O)c1=O)C(=O)C(F)(F)F (configuration not stated) .
F

Check if Ki falls below 30 nM for CC(C)C(NC(=O)Cn1c(-c2ccccc2)ncc(NC(=O)C(F)(F)F)c1=O)C(=O)C(F)(F)F (configuration not stated) .
F

Check if Ki falls below 30 nM for CC(C)C(NC(=O)Cn1c(C2CCCCC2)ncc(NC(=O)OCc2ccccc2)c1=O)C(=O)C(F)(F)F (configuration not stated) .
F

----------
# Test system: Cricetinae gen. sp.
# ASSAY COMMENT: Oral dose of 2.5 mg/Kg (90 min prior to instillation of elastase) was tested for the inhibition of elastase-induced lung hemorrhage in hamster
# Format: functional, Cricetulus griseus
METRIC NAME: inhibition in vivo at 2.5 mg/kg
State the result as a value with its unit after it.

Below, 8 compounds whose answers are already recorded.
1. CC(C)C(NC(=O)Cn1c(-c2ccc(F)cc2)ncc(N)c1=O)C(=O)C(F)(F)F (stereo not given)	49%
2. CC(C)C(NC(=O)Cn1c(-c2cc(F)cc(F)c2)ncc(N)c1=O)C(=O)C(F)(F)F (stereo not given)	45%
3. CC(C)C(NC(=O)Cn1c(-c2cccs2)ncc(N)c1=O)C(=O)C(F)(F)F (stereo not given)	37%
4. CCNc1cnc(-c2cccs2)n(CC(=O)NC(C(=O)C(F)(F)F)C(C)C)c1=O (stereo not given)	32%
5. CC(C)C(NC(=O)Cn1c(-c2cccs2)ncc(NC=O)c1=O)C(=O)C(F)(F)F (stereo not given)	37%
6. CC(C)C(NC(=O)Cn1c(-c2cccs2)ncc(NC(=O)OCC(F)(F)F)c1=O)C(=O)C(F)(F)F (stereo not given)	41%
7. CC(C)C(NC(=O)Cn1c(-c2ccccc2)ncc(NC(=O)OCC(F)(F)F)c1=O)C(=O)C(F)(F)F (stereo not given)	39%
8. CSC(=O)Nc1cnc(-c2ccc(F)cc2)n(CC(=O)NC(C(=O)C(F)(F)F)C(C)C)c1=O (stereo not given)	50%

Items follow; give inhibition in vivo at 2.5 mg/kg for each.
1. CSC(=O)Nc1cnc(-c2ccccc2)n(CC(=O)NC(C(=O)C(F)(F)F)C(C)C)c1=O (stereo not given)
2. CC(C)C(NC(=O)Cn1c(-c2cccs2)ncc(NC(=O)OC(C)(C)C)c1=O)C(=O)C(F)(F)F (stereo not given)

["32%", "33%"]
